test system: SK-MEL-28 melanoma; assay: NCI-60 one-dose screen, 48 h; details: 10 µM unless noted
The panel holds about 83,000 compounds, 20% with a hit somewhere; the sample as a whole holds those more often. Calls of active or inactive are those of the source. How the source made its calls: active means growth percent below 10; inactive means the rest.
Choose one outcome from this list and give only that: TRUE (active), FALSE (inactive)

Problem: Hi, do you know how CCCCCCCCCCCC(=O)NC(C)(C)C(=O)N1CCCC1C(=O)NC(C)(C)C(=O)NC(C)(C)C(=O)N1CCCC1C(=O)NC(C)(C)C(=O)NC(C)(C)C(=O)N1CCCC1C(=O)NC(C)C(=O)NCCC(=O)NC(C)C(=O)NC(C)(C)C(=O)NC(C)(C)C(=O)NC(C)(C)C(=O)NCCC(=O)NC(C)(C)C(=O)NC(C)(C)C(=O)NC(C)(C)C(=O)NC(C)C(=O)NCCC(=O)O (configuration not stated) came out in this test?
Solution: TRUE

Problem: Write down the call the test reported for this compound. Item: CCCCCCNC(=O)Oc1ccc(/C(=C(/C)c2ccc(OC)cc2)c2ccc(OCCN3CCCCCC3)cc2)cc1
Solution: TRUE

Problem: I would be grateful if you could indicate the recorded call for CCN(CC)c1ccc(/C=N/NC(=O)c2ccc(S(N)(=O)=O)cc2)cc1 .
Solution: FALSE

Problem: Called result for CN1CCN(c2ccc(Nc3nc(NCCNC(=O)c4ccccc4)c4sccc4n3)cc2)CC1
Solution: FALSE

Problem: What did this assay record as the result for Cn1ncc2ncc(-c3ccc4ncc(C#N)c(N5CCc6cc(F)c(Cl)cc65)c4c3)cc21 ?
Solution: FALSE

Problem: Could you check what this test reported for COC(=O)N1CCN(CCNCc2ccc(NC(=O)c3ccc(C)c(C#Cc4cnc5cccnn45)c3)cc2C(F)(F)F)CC1 ?
Solution: FALSE

Problem: Dear colleague, could you share the recorded outcome for Clc1ccc2[nH]cc(-c3nn4cc(-c5ccncc5)nc4s3)c2c1 when you have a moment?
Solution: FALSE

Each recorded value in this set is attributed to PubChem BioAssay (NCI).
